Test system: YopH tyrosine phosphatase [Yersinia enterocolitica]
assay.procedure: inhibition of Yersinia YopH phosphatase – biochemical, fluorescence Ex485/Em525, primary screen (AID 898)
applied.conditions: concentration not given here
The whole screen tested about 140,000 compounds, of which about 220 (0.16%) were called active. No stated cut-off is given here; in the data, active means inhibition above about 50%; inactive means the rest. What follows is part of a selection rich in actives, with near analogues and random picks from the rest.
Parameter call: string, one of active, inactive

Record request — test call for O=C(c1cccs1)n1nc(NCc2ccccc2)nc1NCc1ccccc1 inactive

Record request — test call for O=C(CSc1nnc(SCc2ccc(Cl)cc2)s1)N/N=C/c1ccccc1Cl inactive

Record request — test call for CCCC(NC(=O)c1ccco1)c1nc2ccccc2[nH]1 (configuration not stated) inactive

Record request — test call for Cc1ccc(O)c(-c2cc(C(=O)Nc3c(C)n(C)n(-c4ccccc4)c3=O)[nH]n2)c1 inactive

Record request — test call for COc1ccc(NC(=O)c2sc(N3CCOCC3)nc2-c2ccccc2)c(OC)c1 inactive

Record request — test call for N#Cc1c(-c2ccc(F)cc2)cc(C2CC2)nc1SCC(=O)c1cccs1 inactive

Record request — test call for CC(=O)c1ccc(NC(=S)NC(=O)CC(C)C)cc1 inactive

Record request — test call for CCOc1cccc2c1OC1(CCCCC1)N1N=C(c3cccnc3)CC21 (configuration not stated) inactive

Record request — test call for CN(C)c1ccnc2sc(C(=O)c3ccccc3)c(N)c12 inactive

Record request — test call for Cc1coc2c(O)cc3c(c12)OC1(N2CCCCC2)C(=O)NCCCC31 (configuration not stated) active

Record request — test call for CCCCOc1ccc(NC(=O)[C@@H]2CCCN2C(=O)C2CCN(S(=O)(=O)c3ccc(C)cc3)CC2)cc1 inactive

Record request — test call for CCCOc1ccc(NC(=O)C2OC3OC(C)(C)OC3C3OC(C)(C)OC23)cc1 (configuration not stated) inactive

Record request — test call for Cc1nonc1C(=O)N/N=C/c1ccc(O)cc1 inactive

Record request — test call for CN1CCN(c2ccc(S(=O)(=O)N3CCCCC3)cc2NC(=O)Cc2ccccc2F)CC1 inactive

Record request — test call for COc1ccc(C)cc1NC(=O)C(OC(=O)c1cccc(S(=O)(=O)N(C)c2ccccc2)c1)c1ccccc1 (configuration not stated) inactive

Record request — test call for Cc1cccc(N2C(=O)SC(SC(=Nc3ccccc3)Nc3ccccc3)C2=O)c1 (configuration not stated) inactive

Record request — test call for C=CCNC(=S)NNC(=O)COc1c(Cl)cc(Cl)cc1Cl inactive
